Each recorded value in this set is attributed to paper PMC3542813.

Target: EtCRK2/XlRINGO (Eimeria tenella, UniProt Q6R8F0)
Sequence (Q6R8F0 entry or part of it): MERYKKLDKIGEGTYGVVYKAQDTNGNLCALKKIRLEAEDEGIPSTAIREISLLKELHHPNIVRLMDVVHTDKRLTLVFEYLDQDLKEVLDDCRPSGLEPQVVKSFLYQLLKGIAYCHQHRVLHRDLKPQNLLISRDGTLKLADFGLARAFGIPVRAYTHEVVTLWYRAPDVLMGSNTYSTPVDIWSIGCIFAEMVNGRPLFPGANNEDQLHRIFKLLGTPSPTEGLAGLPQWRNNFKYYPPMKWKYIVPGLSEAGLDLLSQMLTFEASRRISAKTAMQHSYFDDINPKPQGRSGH
Assay: biochemical
Settings: standard CDK inhibitors; mean±SD, n = 3–6; read-out: Ki EtCRK2/XlRINGO
pKi: −log10 of the molar value.
Each entry below lists one item and its recorded pKi value.

>  <Smiles notation>
O=C1Cc2c([nH]c3ccc([N+](=O)[O-])cc23)-c2ccccc2N1

>  <Tested system>
EtCRK2/XlRINGO (Eimeria tenella, UniProt Q6R8F0)

>  <pKi>
7.15

$$$$
>  <Smiles notation>
O=C1Nc2ccc(S(=O)(=O)O)cc2/C1=C1/Nc2ccccc2C1=O

>  <Tested system>
EtCRK2/XlRINGO (Eimeria tenella, UniProt Q6R8F0)

>  <pKi>
6.77

$$$$
>  <Smiles notation>
NC1=NC(=O)/C(=C2\CCNC(=O)c3[nH]c(Br)cc32)N1

>  <Tested system>
EtCRK2/XlRINGO (Eimeria tenella, UniProt Q6R8F0)

>  <pKi>
7.30

$$$$

====

Each entry below lists one item and its recorded Ki value.
Target: HsCDK2/HsCYCA (Homo sapiens)
Test: TR-FRET kinase assay, human CDK2 activated by human cyclin A
Assay type: biochemical
Conditions: standard CDK inhibitors; mean±SD, n = 3–6

>  <Compound>
CC(C)C(CO)Nc1nc(Nc2cccc(Cl)c2)c2ncn(C(C)C)c2n1 (centres unmarked) [Purvalanol A]

>  <Ki (nM)>
40

$$$$
>  <Compound>
NC1=NC(=O)/C(=C2\CCNC(=O)c3[nH]c(Br)cc32)N1 [10-Z-Hymendialdisine]

>  <Ki (nM)>
30

$$$$

====

Target: EtCRK2/EtCYC3a (Eimeria tenella)
Assay: TR-FRET kinase assay, EtCRK2 activated by EtCYC3a
Format: biochemical
Excerpt: In order to discover specific inhibitors of EtCRK2 we performed an in vitro screening campaign supported by an in silico hit enrichment (Fig. 4).
pIC50: −log10 of the molar value.

>  <Smiles notation>
CN[C@@H]1C[C@H]2O[C@@](C)([C@@H]1OC)n1c3ccccc3c3c4c(c5c6ccccc6n2c5c31)C(=O)NC4

>  <pIC50>
6.72

$$$$
>  <Smiles notation>
NC1=NC(=O)/C(=C2\CCNC(=O)c3[nH]c(Br)cc32)N1

>  <pIC50>
6.03

$$$$
>  <Smiles notation>
Nc1cc(S(=O)(=O)O)c2cccnc2c1O

>  <pIC50>
5.19

$$$$

====

Entries annotated with measured pIC50
Target: EtCRK2/XlRINGO (Eimeria tenella)
Assay: biochemical
Conditions: standard CDK inhibitors; mean±SD, n = 3–6; read-out: IC50 EtCRK2/XlRINGO
pIC50: −log10 of the molar value.
Measurement kind: pIC50

>  <Smiles notation>
O=C1Nc2ccc(S(=O)(=O)O)cc2/C1=C1/Nc2ccccc2C1=O

>  <Numeric readout>
6.17

$$$$
>  <Smiles notation>
NC1=NC(=O)/C(=C2\CCNC(=O)c3[nH]c(Br)cc32)N1

>  <Numeric readout>
6.36

$$$$
>  <Smiles notation>
O=C1Cc2c([nH]c3ccc([N+](=O)[O-])cc23)-c2ccccc2N1

>  <Numeric readout>
6.66

$$$$

====

Molecular target: EtCRK2/EtCYC3a (Eimeria tenella)
Assay: TR-FRET kinase assay, EtCRK2 activated by EtCYC3a
Assay type: biochemical
Conditions: standard CDK inhibitors; mean±SD, n = 3–6; read-out: IC50 EtCRK2/EtCYC3a
pIC50: −log10 of the molar value.
pIC50 values for the compounds below.

>  <Compound>
O=C1Cc2c([nH]c3ccc([N+](=O)[O-])cc23)-c2ccccc2N1 [Alsterpaullone]

>  <pIC50>
6.19

$$$$
>  <Compound>
O=C1Nc2ccc(S(=O)(=O)O)cc2/C1=C1/Nc2ccccc2C1=O [Indirubin-5′-sulfonic acid]

>  <pIC50>
6.03

$$$$
>  <Compound>
CC(C)C(CO)Nc1nc(Nc2cccc(Cl)c2)c2ncn(C(C)C)c2n1 (stereo not drawn) [Purvalanol A]

>  <pIC50>
5.99

$$$$

====

Target: HsCDK2/HsCYCA (Homo sapiens)
Assay: TR-FRET kinase assay, human CDK2 activated by human cyclin A
Assay type: biochemical
Details: lead structures; mean±SD, n = 3–6
pIC50: −log10 of the molar value.
Measurement kind: pIC50

>  <Molecule>
OC(CSc1ccccc1)CN1CCC(Nc2nccc(C(F)(F)F)n2)CC1 (stereo not drawn)

>  <Limit operator>
<

>  <Numeric readout>
3.70

$$$$
>  <Molecule>
Nc1cc(S(=O)(=O)O)c2cccnc2c1O

>  <Limit operator>
=

>  <Numeric readout>
5.29

$$$$
>  <Molecule>
Cc1cc(O)c2c(c1O)C(=O)C(Cl)=C(Cl)C2=O

>  <Limit operator>
=

>  <Numeric readout>
4.84

$$$$

====

Reported Ki values are given for each entry in this list.
Target: EtCRK2/EtCYC3a (Eimeria tenella, UniProt Q6R8F0)
Experiment: TR-FRET kinase assay, EtCRK2 activated by EtCYC3a
Type: biochemical

>  <Molecule>
Nc1cc(S(=O)(=O)O)c2cccnc2c1O [BES312351]

>  <Ki [nM]>
4670

$$$$
>  <Molecule>
NC1=NC(=O)/C(=C2\CCNC(=O)c3[nH]c(Br)cc32)N1 [10-Z-Hymendialdisine]

>  <Ki [nM]>
190

$$$$
>  <Molecule>
CN[C@@H]1C[C@H]2O[C@@](C)([C@@H]1OC)n1c3ccccc3c3c4c(c5c6ccccc6n2c5c31)C(=O)NC4 [Staurosporine]

>  <Ki [nM]>
530

$$$$

====

Biological target: EtCRK2/XlRINGO (Eimeria tenella)
Assay: biochemical
pKi: −log10 of the molar value.
# reported pKi; entries follow
Measurement kind: pKi

>  <Compound>
CN[C@@H]1C[C@H]2O[C@@](C)([C@@H]1OC)n1c3ccccc3c3c4c(c5c6ccccc6n2c5c31)C(=O)NC4

>  <Numeric readout>
7.70

$$$$
>  <Compound>
CC(C)C(CO)Nc1nc(Nc2cccc(Cl)c2)c2ncn(C(C)C)c2n1 (centres unmarked)

>  <Numeric readout>
7.10

$$$$

====

Molecular target: EtCRK2/EtCYC3a (Eimeria tenella, UniProt Q6R8F0)
Experiment: TR-FRET kinase assay, EtCRK2 activated by EtCYC3a
Assay type: biochemical
Conditions: lead structures; mean±SD, n = 3–6; read-out: IC50 EtCRK2/ EtCYC3a
From the text: In order to discover specific inhibitors of EtCRK2 we performed an in vitro screening campaign supported by an in silico hit enrichment (Fig. 4).

>  <Molecule>
Cc1cc(O)c2c(c1O)C(=O)C(Cl)=C(Cl)C2=O

>  <Measurement unit>
µM

>  <IC50>
18.1

$$$$
>  <Molecule>
OC(CSc1ccccc1)CN1CCC(Nc2nccc(C(F)(F)F)n2)CC1 (centres unmarked)

>  <Measurement unit>
µM

>  <IC50>
7.35

$$$$

====

Target: EtCRK2/EtCYC3a (Eimeria tenella)
Assay: TR-FRET kinase assay, EtCRK2 activated by EtCYC3a
Format: biochemical
Details: standard CDK inhibitors; mean±SD, n = 3–6; read-out: Ki EtCRK2/EtCYC3a
Measurement kind: Ki

>  <Molecule>
CC(C)C(CO)Nc1nc(Nc2cccc(Cl)c2)c2ncn(C(C)C)c2n1 (stereo not drawn)

>  <Tested system>
EtCRK2/EtCYC3a (Eimeria tenella)

>  <Measurement kind>
Ki

>  <Result>
0.36 µM

$$$$
>  <Molecule>
O=C1Nc2ccc(S(=O)(=O)O)cc2/C1=C1/Nc2ccccc2C1=O

>  <Tested system>
EtCRK2/EtCYC3a (Eimeria tenella)

>  <Measurement kind>
Ki

>  <Result>
0.24 µM

$$$$
>  <Molecule>
O=C1Cc2c([nH]c3ccc([N+](=O)[O-])cc23)-c2ccccc2N1

>  <Tested system>
EtCRK2/EtCYC3a (Eimeria tenella)

>  <Measurement kind>
Ki

>  <Result>
0.21 µM

$$$$

====

Molecular target: EtCRK2/EtCYC3a (Eimeria tenella, UniProt Q6R8F0)
Experiment: TR-FRET kinase assay, EtCRK2 activated by EtCYC3a
Type: biochemical
Conditions: lead structures; mean±SD, n = 3–6; read-out: Ki EtCRK2/ ETCYC3a
Measurement kind: Ki (µM)

>  <Compound>
OC(CSc1ccccc1)CN1CCC(Nc2nccc(C(F)(F)F)n2)CC1 (centres unmarked) [BES124764]

>  <Measurement kind>
Ki

>  <Numeric readout>
3.42

$$$$
>  <Compound>
Cc1cc(O)c2c(c1O)C(=O)C(Cl)=C(Cl)C2=O [BES130131]

>  <Measurement kind>
Ki

>  <Numeric readout>
6.87

$$$$

====

Target: EtCRK2/XlRINGO (Eimeria tenella, UniProt Q6R8F0)
Test: biochemical
Settings: lead structures; mean±SD, n = 3–6; read-out: IC50 EtCRK2/ XlRINGO
Measurement kind: IC50 (µM)

>  <Compound>
OC(CSc1ccccc1)CN1CCC(Nc2nccc(C(F)(F)F)n2)CC1 (stereo not drawn)

>  <Numeric readout>
18.6

$$$$
>  <Compound>
Cc1cc(O)c2c(c1O)C(=O)C(Cl)=C(Cl)C2=O

>  <Numeric readout>
14.8

$$$$
>  <Compound>
Nc1cc(S(=O)(=O)O)c2cccnc2c1O

>  <Numeric readout>
7.13

$$$$
